protocol description: PK in monkeys
Format: in vivo, cynomologous monkeys
condition parameters: monkey, in vivo, oral, 50 mg/kg, crystalline ethanolate, Miglyol/Cremophor/water 40/10/50, 50 mg/kg (BID)
readout type: AUC

// sample CCOC(=O)N1c2ccc(C(F)(F)F)cc2[C@@H](N(Cc2cc(C(F)(F)F)cc(C(F)(F)F)c2)C(=O)OC)C[C@H]1CC , its AUC was 13000 to 15000 ng·h/mL

###

protocol description: PK in rat, oils or preformed emulsions by oral gavage
Design: species or system Sprague Dawley rats
condition parameters: Sprague-Dawley, in vivo, 100 mg/kg, crystalline ethanolate, Miglyol/Cremophor/0.5% HPMCAS 40/10/50, 100 mg/kg
readout type: Cmax (ng/mL)
Numeric only. Scale: ng/mL

Measured Cmax of CCOC(=O)N1c2ccc(C(F)(F)F)cc2[C@@H](N(Cc2cc(C(F)(F)F)cc(C(F)(F)F)c2)C(=O)OC)C[C@H]1CC [Compound A] : 1600

###

protocol description: PK in rat, oils or preformed emulsions by oral gavage
Set-up: species or system Sprague Dawley rats
condition parameters: Sprague-Dawley, in vivo, 100 mg/kg, crystalline ethanolate, Miglyol/Cremophor/water 40/10/50, 100 mg/kg, conc. in oil 100 mg/mL
readout type: Cmax (ng/mL)
Unit ng/mL implied. Number only.

Per the record, CCOC(=O)N1c2ccc(C(F)(F)F)cc2[C@@H](N(Cc2cc(C(F)(F)F)cc(C(F)(F)F)c2)C(=O)OC)C[C@H]1CC has Cmax of 1900

###

protocol description: Microsolubility estimate by repeated addition of vehicle
Format: physicochemical
condition parameters: Crodamol GTCC, oil or lipid, thermodynamic from solid; read-out: Microsolubility
Reported Solubility by item:

Consider the worked cases shown below.
CCOC(=O)N1c2cc3c(cc2[C@H](N(Cc2cc(C(F)(F)F)cc(C(F)(F)F)c2)C(=O)OC)C[C@@H]1C)CCC3: > 100 mg/mL
COC(=O)N(Cc1cc(C(F)(F)F)cc(C(F)(F)F)c1)[C@@H]1CC(C2CC2)N(C(=O)OC(C)C)c2ccc(C(F)(F)F)cc21 (stereo in doubt): > 300 mg/mL

Entry under test: CCOC(=O)N1c2ccc(C(F)(F)F)cc2[C@@H](N(Cc2cc(C(F)(F)F)cc(C(F)(F)F)c2)C(=O)OC)C[C@H]1CC . Its Solubility was < 75 mg/mL

The reported value for CCC(CC)CC1(C(=O)Nc2ccccc2SC(=O)C(C)C)CCCCC1 in terms of Solubility is < 20 mg/mL

// recorded Solubility for CCOC(=O)N1c2cc(C(F)(F)F)ccc2[C@@H](N(Cc2cc(C(F)(F)F)cc(C(F)(F)F)c2)C(=O)OC)C[C@H]1C : > 20 mg/mL

###

protocol description: PK in rat, oils or preformed emulsions by oral gavage
Parameters: species or system Sprague Dawley rats
condition parameters: Sprague-Dawley, in vivo, 100 mg/kg, crystalline ethanolate, Olive oil/Cremophor/water 40/10/50, 100 mg/kg, conc. in oil 20 mg/mL
From the text: Emulsions prepared from olive oil/surfactant provided the best results.
readout type: Cmax (ng/mL)
# value in ng/mL; strip the unit string

Sample CCOC(=O)N1c2ccc(C(F)(F)F)cc2[C@@H](N(Cc2cc(C(F)(F)F)cc(C(F)(F)F)c2)C(=O)OC)C[C@H]1CC ; Cmax observed: 6200
